Just for reference, patent US12606572B2 is where these values come from.

Biological target: KRAS G12S (Homo sapiens, UniProt P01116, G12S)
Sequence (P01116 1-188 isoform P01116-2 G12S): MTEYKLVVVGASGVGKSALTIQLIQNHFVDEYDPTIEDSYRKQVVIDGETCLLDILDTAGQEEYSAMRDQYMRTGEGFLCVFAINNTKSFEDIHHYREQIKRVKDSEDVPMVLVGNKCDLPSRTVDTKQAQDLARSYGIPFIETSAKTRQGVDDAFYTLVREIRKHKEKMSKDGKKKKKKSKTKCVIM
Experiment: HTRF assay, interaction of GST-tagged K-Ras with His-tagged hSOS1 (KRAS G12S)
Conditions: <500 nM, read-out: Inhibition of KRAS G12S (IC50)
reportedMetric: IC50

[[record]]
compound = "CC([C@H]1CCN1C(=O)n1cncn1)N1CCOc2c(Cl)c(-c3ccc(F)c4sc(N)c(C#N)c34)c(F)c3nc(OC[C@@]45CCCN4C[C@H](F)C5)nc1c23 (some centres unmarked)"
testedon = "KRAS G12S (Homo sapiens, UniProt P01116, G12S)"
reportedmetric = "IC50"
recordedresult = "< 500 nM"

[[record]]
compound = "CC1([C@@H]2[C@H](CN3CCOc4c(Cl)c(-c5ccc(F)c6sc(N)c(C#N)c56)c(F)c5nc(OC[C@@]67CCCN6C[C@H](F)C7)nc3c45)CN2C(=O)n2ccnc2)CC1"
testedon = "KRAS G12S (Homo sapiens, UniProt P01116, G12S)"
reportedmetric = "IC50"
recordedresult = "< 500 nM"

[[record]]
compound = "C[C@@H]1[C@H](N2c3nc(OC[C@@]45CCCN4C[C@H](F)C5)nc4c(F)c(-c5ccc(F)c6sc(N)c(C#N)c56)c(Cl)c(c34)OC[C@@H]2C)CCN1C(=O)n1cnc(C#N)c1"
testedon = "KRAS G12S (Homo sapiens, UniProt P01116, G12S)"
reportedmetric = "IC50"
recordedresult = "< 500 nM"

[[record]]
compound = "N#Cc1c(N)sc2c(F)ccc(-c3c(Cl)c4c5c(nc(OC[C@@]67CCCN6C[C@H](F)C7)nc5c3F)N(CC3CN(C(=O)/C=C/C5COC5)C3)CCO4)c12"
testedon = "KRAS G12S (Homo sapiens, UniProt P01116, G12S)"
reportedmetric = "IC50"
recordedresult = "< 500 nM"

[[record]]
compound = "Cc1cn(C(=O)N(C)[C@@H]2C[C@@H]3CCOc4c(Cl)c(-c5ccc(F)c6sc(N)c(C#N)c56)c(F)c5nc(OC[C@@]67CCCN6C[C@H](F)C7)nc(c45)N3C2)cn1 (single isomer, unassigned)"
testedon = "KRAS G12S (Homo sapiens, UniProt P01116, G12S)"
reportedmetric = "IC50"
recordedresult = "< 500 nM"

[[record]]
compound = "CN(C)C/C=C/C(=O)N1CC(CN2CCOc3c(Cl)c(-c4ccc(F)c5sc(N)c(C#N)c45)c(F)c4nc(OC[C@@]56CCCN5C[C@H](F)C6)nc2c34)C1"
testedon = "KRAS G12S (Homo sapiens, UniProt P01116, G12S)"
reportedmetric = "IC50"
recordedresult = "< 500 nM"

[[record]]
compound = "COCC1([C@@H]2[C@H](CN3CCOc4c(Cl)c(-c5ccc(F)c6sc(N)c(C#N)c56)c(F)c5nc(OC[C@@]67CCCN6C[C@H](F)C7)nc3c45)CN2C(=O)n2cnc(C)c2)CC1"
testedon = "KRAS G12S (Homo sapiens, UniProt P01116, G12S)"
reportedmetric = "IC50"
recordedresult = "< 500 nM"

[[record]]
compound = "CC1([C@@H]2[C@H](CN3CCCOc4c(Cl)c(-c5ccc(F)c6sc(N)c(C#N)c56)c(F)c5nc(OC[C@@]67CCCN6C[C@H](F)C7)nc3c45)CN2C(=O)n2ccnc2)CC1"
testedon = "KRAS G12S (Homo sapiens, UniProt P01116, G12S)"
reportedmetric = "IC50"
recordedresult = "< 500 nM"

[[record]]
compound = "C[C@@H]1[C@H](N2CCOc3c(Cl)c(-c4ccc(F)c5sc(N)c(C#N)c45)c(F)c4nc(OC[C@@]56CCCN5C[C@H](F)C6)nc2c34)CCN1C(=O)n1cnc(F)n1 (single isomer, unassigned)"
testedon = "KRAS G12S (Homo sapiens, UniProt P01116, G12S)"
reportedmetric = "IC50"
recordedresult = "< 500 nM"

[[record]]
compound = "C/C(C#N)=C\\C(=O)N1CC(CN2CCOc3c(Cl)c(-c4ccc(F)c5sc(N)c(C#N)c45)c(F)c4nc(OC[C@@]56CCCN5C[C@H](F)C6)nc2c34)C1"
testedon = "KRAS G12S (Homo sapiens, UniProt P01116, G12S)"
reportedmetric = "IC50"
recordedresult = "< 500 nM"

[[record]]
compound = "CC(C)(C)[C@@H]1[C@H](CN2CCOc3c(Cl)c(-c4ccc(F)c5sc(N)c(C#N)c45)c(F)c4nc(OC[C@@]56CCCN5C[C@H](F)C6)nc2c34)CN1C(=O)n1cnc(F)n1 (single isomer, unassigned)"
testedon = "KRAS G12S (Homo sapiens, UniProt P01116, G12S)"
reportedmetric = "IC50"
recordedresult = "< 500 nM"

[[record]]
compound = "Cc1cn(C(=O)N2CC[C@@H](N3CCOc4c(Cl)c(-c5ccc(F)c6sc(N)c(C#N)c56)c(F)c5nc(OC[C@@]67CCCN6C[C@H](F)C7)nc3c45)[C@H]2C)c(C)n1"
testedon = "KRAS G12S (Homo sapiens, UniProt P01116, G12S)"
reportedmetric = "IC50"
recordedresult = "< 500 nM"

[[record]]
compound = "N#CCC1([C@@H]2[C@H](CN3CCOc4c(Cl)c(-c5ccc(F)c6sc(N)c(C#N)c56)c(F)c5nc(OC[C@@]67CCCN6C[C@H](F)C7)nc3c45)CN2C(=O)n2ccnc2)CC1"
testedon = "KRAS G12S (Homo sapiens, UniProt P01116, G12S)"
reportedmetric = "IC50"
recordedresult = "< 500 nM"

[[record]]
compound = "C[C@@H]1[C@H](N2C[C@H](C)Oc3nc(-c4ccc(F)c5sc(N)c(C#N)c45)c(F)c4nc(OC[C@@]56CCCN5C[C@H](F)C6)nc2c34)CCN1C(=O)n1cnc(Cl)n1"
testedon = "KRAS G12S (Homo sapiens, UniProt P01116, G12S)"
reportedmetric = "IC50"
recordedresult = "< 500 nM"

[[record]]
compound = "Cc1cn(C(=O)N2CC[C@@H](N3C[C@H](C)Oc4c(Cl)c(-c5ccc(F)c6sc(N)c(C#N)c56)c(F)c5nc(OC[C@@]67CCCN6C[C@H](F)C7)nc3c45)[C@H]2C)c(C)n1"
testedon = "KRAS G12S (Homo sapiens, UniProt P01116, G12S)"
reportedmetric = "IC50"
recordedresult = "< 500 nM"

[[record]]
compound = "Cc1cn(C(=O)N2CC[C@@H](N3CCOc4nc(-c5cc(N)c(F)c(C)c5C(F)(F)F)c(F)c5nc(OC[C@@]67CCCN6C[C@H](F)C7)nc3c45)[C@H]2C)c(C)n1"
testedon = "KRAS G12S (Homo sapiens, UniProt P01116, G12S)"
reportedmetric = "IC50"
recordedresult = "< 500 nM"

[[record]]
compound = "C=C(C(=O)N1CC(CN2CCOc3c(Cl)c(-c4ccc(F)c5sc(N)c(C#N)c45)c(F)c4nc(OC[C@@]56CCCN5C[C@H](F)C6)nc2c34)C1)C1CC1"
testedon = "KRAS G12S (Homo sapiens, UniProt P01116, G12S)"
reportedmetric = "IC50"
recordedresult = "< 500 nM"

